# Lookup of reported Tmax keyed by entry
# protocol: Toxicokinetics test in the satellite groups (UPLC-MS/MS of rat plasma)
# Type: in vivo
# condition.parameters: female, SD, rat, plasma, po, female rats, Day 28, lowest dose (berberine 8.01, epiberberine 0.82, coptisine 1.38, palmatine 2.03, jatrorrhizine 0.31, columbamine 0.66 mg/kg)
Only the number, expressed in h, is required.

[
  {
    "input.smiles": "COc1cc2c(cc1O)CC[n+]1cc3c(OC)c(OC)ccc3cc1-2",
    "unit.tag": "h",
    "Tmax": 4.17
  }
]

Turning to the following molecule.
Kindly indicate its recorded Tmax. Item: `COc1cc2c(cc1O)-c1cc3ccc(OC)c(OC)c3c[n+]1CC2`
0.42

====

Attribute: AUC(0-t)
# protocol: Toxicokinetics test in the satellite groups (UPLC-MS/MS of rat plasma)
# Type: in vivo
# condition.parameters: male, SD, rat, plasma, po, male rats, Day 28, lowest dose (berberine 8.01, epiberberine 0.82, coptisine 1.38, palmatine 2.03, jatrorrhizine 0.31, columbamine 0.66 mg/kg); read-out: AUC0-t mean
# Method: SD rats (5 ~ 6 weeks, 3/group/sex) were randomly allocated to three treatment groups and given the same dosage as those in the repeated toxicity experiment for 28 days. […] Carbamazepine was chosen as the internal standard (IS). The blood samples were centrifuged to obtain plasma. Then, 300 μL of acetonitrile containing 40 ng of IS was added to 100 μL of plasma. After vortexing for 1 min, the mixture was centrifuged at 17,000 rpm for 15 min at 4 °C. […]
Give your result in ng·h/mL as a bare value.

Return reported AUC(0-t). Input compound: COc1cc2c(cc1O)-c1cc3ccc(OC)c(OC)c3c[n+]1CC2 [columbamine]
31.1

Identify AUC(0-t) associated with the compound COc1cc2c(cc1O)CC[n+]1cc3c(OC)c(OC)ccc3cc1-2 [jatrorrhizine]
8.62

====

Attribute: AUC(0-t)
# protocol: Toxicokinetics test in the satellite groups (UPLC-MS/MS of rat plasma)
# Assay type: in vivo
# condition.parameters: female, SD, rat, plasma, po, 0.4 g/kg, female rats, Day 1, low dose TAZF 0.4 g/kg by gavage; read-out: AUC0-t
API: value field is a number in ng·h/mL; no unit string.

Use the examples below as a reference point.
[
  {
    "input.smiles": "COc1ccc2cc3[n+](cc2c1OC)CCc1cc2c(cc1-3)OCO2",
    "measured.attribute": "AUC(0-t)",
    "val": 122
  },
  {
    "input.smiles": "COc1cc2c(cc1O)-c1cc3ccc(OC)c(OC)c3c[n+]1CC2",
    "measured.attribute": "AUC(0-t)",
    "val": 71.4
  }
]

Input `COc1cc2c(cc1O)CC[n+]1cc3c(OC)c(OC)ccc3cc1-2` , output reported AUC(0-t).
25.6

====

# protocol: Toxicokinetics test in the satellite groups (UPLC-MS/MS of rat plasma)
# Type: in vivo
# condition.parameters: male, SD, rat, plasma, po, male rats, Day 28, highest dose (berberine 72.08, epiberberine 7.42, coptisine 7.42, palmatine 18.26, jatrorrhizine 2.80, columbamine 5.93 mg/kg); read-out: AUC0-t mean
Below, each entry is listed with its recorded AUC(0-t).
# output: bare number, implied unit ng·h/mL

[
  {
    "compound": "COc1cc2c(cc1O)-c1cc3ccc(OC)c(OC)c3c[n+]1CC2 [columbamine]",
    "measured.attribute": "AUC(0-t)",
    "val": 65.1
  }
]

Now take the following compound into account.
Could you please provide reported AUC(0-t) for COc1cc2c(cc1O)CC[n+]1cc3c(OC)c(OC)ccc3cc1-2 [jatrorrhizine] ? Thanks!
25.6

====

# protocol: Toxicokinetics test in the satellite groups (UPLC-MS/MS of rat plasma)
# Type: in vivo
# condition.parameters: male, SD, rat, in vivo, po, 0.4 g/kg, Cmax
# Experimental: SD rats (5 ~ 6 weeks, 3/group/sex) were randomly allocated to three treatment groups and given the same dosage as those in the repeated toxicity experiment for 28 days. […] Carbamazepine was chosen as the internal standard (IS). The blood samples were centrifuged to obtain plasma. Then, 300 μL of acetonitrile containing 40 ng of IS was added to 100 μL of plasma. After vortexing for 1 min, the mixture was centrifuged at 17,000 rpm for 15 min at 4 °C. […]
measured.attribute: Cmax (ng/mL)
The reply should contain only the number, in ng/mL.

Name the recorded Cmax of the item `c1c2c(cc3c1OCO3)-c1cc3ccc4c(c3c[n+]1CC2)OCO4` in your answer.
32.4

====

Entries and their measured AUC(0-t) follow.
# protocol: Toxicokinetics test in the satellite groups (UPLC-MS/MS of rat plasma)
# Type: in vivo
# condition.parameters: male, SD, rat, plasma, po, 0.4 g/kg, male rats, Day 28, low dose TAZF 0.4 g/kg by gavage; read-out: AUC0-t
# Description: SD rats (5 ~ 6 weeks, 3/group/sex) were randomly allocated to three treatment groups and given the same dosage as those in the repeated toxicity experiment for 28 days. […] Carbamazepine was chosen as the internal standard (IS). The blood samples were centrifuged to obtain plasma. Then, 300 μL of acetonitrile containing 40 ng of IS was added to 100 μL of plasma. After vortexing for 1 min, the mixture was centrifuged at 17,000 rpm for 15 min at 4 °C. […]
Report as a plain number; the unit ng·h/mL is understood.

Example compounds with recorded AUC(0-t):
[
  {
    "compound": "COc1cc2c(cc1O)-c1cc3ccc(OC)c(OC)c3c[n+]1CC2 [columbamine]",
    "AUC(0-t), ng·h/mL": 31.1
  },
  {
    "compound": "COc1ccc2cc3[n+](cc2c1OC)CCc1cc2c(cc1-3)OCO2 [berberine]",
    "AUC(0-t), ng·h/mL": 699
  }
]

Proceed to the following item.
Please supply the value of reported AUC(0-t) for the item COc1cc2c(cc1O)CC[n+]1cc3c(OC)c(OC)ccc3cc1-2 [jatrorrhizine]
8.62

====

Entries and their measured AUC(0-t) follow.
# protocol: Toxicokinetics test in the satellite groups (UPLC-MS/MS of rat plasma)
# Format: in vivo
# condition.parameters: female, SD, rat, plasma, po, female rats, Day 1, middle dose (berberine 24.03, epiberberine 2.47, coptisine 2.47, palmatine 6.09, jatrorrhizine 0.93, columbamine 1.98 mg/kg); read-out: AUC0-t mean
State the answer as a number, implicitly in ng·h/mL.

[
  {
    "input.smiles": "COc1cc2c(cc1O)CC[n+]1cc3c(OC)c(OC)ccc3cc1-2",
    "AUC(0-t) [ng·h/mL]": 19.9
  }
]

Okay, next one:
Give AUC(0-t) for `COc1cc2c(cc1O)-c1cc3ccc(OC)c(OC)c3c[n+]1CC2`
59.2
